- tgt: Oxysterols receptor LXR-beta (Homo sapiens)
- Sequence (P55055 whole entry, the tested form may be a part): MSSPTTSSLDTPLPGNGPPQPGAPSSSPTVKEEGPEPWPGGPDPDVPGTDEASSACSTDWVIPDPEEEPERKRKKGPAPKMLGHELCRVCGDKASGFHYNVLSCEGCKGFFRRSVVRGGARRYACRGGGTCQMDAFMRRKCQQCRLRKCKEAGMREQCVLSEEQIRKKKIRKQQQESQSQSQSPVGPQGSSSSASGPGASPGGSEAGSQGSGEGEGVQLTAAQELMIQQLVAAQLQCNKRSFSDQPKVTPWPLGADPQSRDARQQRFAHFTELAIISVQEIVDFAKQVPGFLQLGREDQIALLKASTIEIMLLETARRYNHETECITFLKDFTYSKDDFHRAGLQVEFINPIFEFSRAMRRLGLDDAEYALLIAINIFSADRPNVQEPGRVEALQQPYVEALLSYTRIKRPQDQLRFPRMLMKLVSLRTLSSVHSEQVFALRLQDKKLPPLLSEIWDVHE
- protocol description: Agonist activity at LXRbeta LBD by HTRF cofactor peptide recruitment assay
- Type: functional
pEC50: −log10 of the molar value.
quantity name: pEC50

INSERT INTO measurements (compound, quantity_name, recorded_result) VALUES
  ('CCS(=O)(=O)NC1Cc2ccc(-c3cc4ccccc4n3C(=O)OC(C)(C)C)cc2C1 (centres undefined)', 'pEC50', 6.40),
  ('CC(C)(C)COC(=O)n1c(-c2ccc3c(c2)CC(NS(=O)(=O)c2ccccc2)C3)cc2ccccc21 (centres undefined)', 'pEC50', 5.85);

I. CC(C)(C)OC(=O)n1c(-c2ccc3c(c2)CC(NS(=O)(=O)c2ccc(F)cc2)C3)cc2ccccc21 (centres undefined)
II. CC(C)(C)OC(=O)n1c(-c2ccc3c(c2)CC(NS(=O)(=O)c2ccccc2F)C3)cc2ccccc21 (centres undefined)
III. CC(C)(C)OC(=O)n1c(-c2ccc3c(c2)CC(NS(=O)(=O)c2ccc(Cl)cc2)C3)cc2ccccc21 (centres undefined)
Given 3 compounds, produce a descending ranking by pEC50. Please list the labels in the order you were asked to rank them.
II, I, III

---

- System: THP-1
- protocol description: Ratio of induction of cholesterol efflux in THP1 cells at 10 uM to control after 18 hrs
- Assay type: functional, Homo sapiens
quantity name: Ratio
Output spec: single numeric token, no unit.

Recorded results for 5 compounds are shown here.
INSERT INTO measurements (compound, recorded_result) VALUES
  ('CC(C)(C)OC(=O)n1c(-c2ccc3c(c2)CC(NS(=O)(=O)c2c(F)cccc2F)C3)cc2ccccc21 (stereo unspecified)', 1.7),
  ('CC(C)(C)OC(=O)n1c(-c2ccc3c(c2)CC(NS(=O)(=O)c2ccccc2)C3)cc2ccccc21 (stereo unspecified)', 1.6),
  ('O=C(O)Cc1cccc(OCCCN(Cc2cccc(C(F)(F)F)c2Cl)CC(c2ccccc2)c2ccccc2)c1', 1.8),
  ('CC(C)(C)OC(=O)n1c(-c2ccc3c(c2)CC(NS(=O)(=O)c2ccc(-c4ccon4)s2)C3)cc2ccccc21 (stereo unspecified)', 1.7),
  ('CC(C)(C)OC(=O)n1c(-c2ccc3c(c2)CC(NS(=O)(=O)c2cccs2)C3)cc2ccccc21 (stereo unspecified)', 1.5);

Form field, Ratio with THP-1, item CC(C)(C)OC(=O)n1c(-c2ccc3c(c2)CC(NS(=O)(=O)c2ccc(F)cc2)C3)cc2ccccc21 (stereo unspecified) : 1.7

---

- tgt: UniProtKB P55055
- protocol description: Agonist activity at LXRbeta LBD by HTRF cofactor peptide recruitment assay
- Format: functional
quantity name: EC50 (nM)

INSERT INTO measurements (molecule, tgt, quantity_name, unit_of_measure, recorded_result) VALUES
  ('CC(C)(C)OC(=O)n1c(-c2ccc3c(c2)CC(NC(=O)c2ccccc2O)C3)cc2ccccc21 (centres undefined)', 'UniProtKB P55055', 'EC50', 'nM', 530);

A. Cc1noc(C)c1S(=O)(=O)NC1Cc2ccc(-c3cc4ccccc4n3C(=O)OC(C)(C)C)cc2C1 (centres undefined)
B. CC(C)(C)OC(=O)n1c(-c2ccc3c(c2)CC(NS(=O)(=O)c2ccccc2C(=O)O)C3)cc2ccccc21 (centres undefined)
C. COc1ccc2c(c1)cc(-c1ccc3c(c1)CC(NS(=O)(=O)c1ccccc1)C3)n2C(=O)OC(C)(C)C (centres undefined)
Which order do these items take when sorted by rising EC50? List them. # respond with the labels, arranged in the requested order
A, B, C
(A: 130 nM, B: 3350 nM, C: 28000 nM)

Values were extracted from ChEMBL document CHEMBL1139922.
